Where these numbers come from: ChEMBL document CHEMBL3870350

# TARGET_OF_ASSAY: Amyloid-beta precursor protein (Homo sapiens) (UniProt P05067)
# Sequence (P05067 whole entry, the tested form may be a part): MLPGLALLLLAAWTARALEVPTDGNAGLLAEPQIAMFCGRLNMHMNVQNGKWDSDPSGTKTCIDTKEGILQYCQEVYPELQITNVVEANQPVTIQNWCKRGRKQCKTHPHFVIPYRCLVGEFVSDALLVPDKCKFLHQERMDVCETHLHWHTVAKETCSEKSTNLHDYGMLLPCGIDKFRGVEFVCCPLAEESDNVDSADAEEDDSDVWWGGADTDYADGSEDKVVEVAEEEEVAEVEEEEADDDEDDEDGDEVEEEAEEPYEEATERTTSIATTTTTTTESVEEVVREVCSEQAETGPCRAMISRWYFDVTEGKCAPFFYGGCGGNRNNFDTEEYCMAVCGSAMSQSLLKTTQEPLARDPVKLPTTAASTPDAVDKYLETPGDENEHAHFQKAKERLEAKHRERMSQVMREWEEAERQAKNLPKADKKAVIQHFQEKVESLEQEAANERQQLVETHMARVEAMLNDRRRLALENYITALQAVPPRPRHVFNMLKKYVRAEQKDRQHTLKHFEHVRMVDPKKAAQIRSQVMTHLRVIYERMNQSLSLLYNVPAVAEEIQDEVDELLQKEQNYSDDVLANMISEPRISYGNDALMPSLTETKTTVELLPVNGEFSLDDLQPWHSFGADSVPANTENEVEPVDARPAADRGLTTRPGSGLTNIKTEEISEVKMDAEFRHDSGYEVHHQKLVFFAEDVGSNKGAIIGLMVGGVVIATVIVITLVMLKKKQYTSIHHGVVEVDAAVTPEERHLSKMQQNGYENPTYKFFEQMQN
# TEST_DESCRIPTION: Inhibition of human amyloid-beta (1 to 42 residues) fibril at 1:1 protein to compound ratio after 2 hrs by ELISA
# DETAILS: concentration not given here
Please respond with reported inhibition for every item in the list.
Write the number in % without appending the unit.

stdin: Can you share its inhibition? I mean this compound: Cc1ccccc1-c1nccc2c1[nH]c1ccccc12
stdout: 17

stdin: Can you share its inhibition? I mean this compound: COc1ccc2[nH]c3c(-c4ccc(F)cc4)nccc3c2c1
stdout: 12

stdin: Can you share its inhibition? I mean this compound: COc1ccc2[nH]c3c(C(=O)c4ccc(C(F)(F)F)cc4)nccc3c2c1
stdout: -5

stdin: Can you share its inhibition? I mean this compound: COc1ccc2[nH]c3c(C(=O)c4ccc(F)cc4)nccc3c2c1
stdout: 6

stdin: Can you share its inhibition? I mean this compound: Fc1ccc(-c2nccc3c2[nH]c2ccccc23)cc1
stdout: 37

stdin: Can you share its inhibition? I mean this compound: COc1ccc2[nH]c3c(-c4ccc(C)cc4)nccc3c2c1
stdout: 10

stdin: Can you share its inhibition? I mean this compound: COc1ccc2[nH]c3c(-c4ccccc4)nccc3c2c1
stdout: 19

stdin: Can you share its inhibition? I mean this compound: Cc1ccc2[nH]c3c(-c4ccc(C(F)(F)F)cc4)nccc3c2c1
stdout: 34

stdin: Can you share its inhibition? I mean this compound: O=C(c1ccc(C(F)(F)F)cc1)c1nccc2c1[nH]c1ccccc12
stdout: 11

stdin: Can you share its inhibition? I mean this compound: c1ccc(-c2nccc3c2[nH]c2ccccc23)cc1
stdout: -4

stdin: Can you share its inhibition? I mean this compound: Cc1ccc2[nH]c3c(-c4ccccc4)nccc3c2c1
stdout: -7

stdin: Can you share its inhibition? I mean this compound: c1ccc2c(-c3nccc4c3[nH]c3ccccc34)cccc2c1
stdout: 39

stdin: Can you share its inhibition? I mean this compound: O=C(c1ccccc1)c1nccc2c1[nH]c1ccccc12
stdout: 20
